test-system: mouse VISTA (mVISTA) (Mus musculus)
Construct: expressed in transfected cells; host or cells: Human embryonic kidney 293T cells
assay-comment: Cell-Based Binding High-Content Assay For mVISTA (HC CBA mVISTA)
assay-context: cell-based binding high-content assay, mVISTA; the 16th table; read-out: HC CBA mVISTA IC50
pIC50: −log10 of the molar value. Positions of bridges follow the written chain, without caps; N, C: chain ends. Non-standard residues stand in square brackets, D forms with d. Residues, ends and D or L forms follow the SMILES beside them. 2Nal = N[C@@H](Cc1ccc2ccccc2c1)C(=O)O; Ahp(2) = CCCCC[C@H](N)C(=O)O; NHexGly = CCCCCCNCC(=O)O; Nle = CCCC[C@H](N)C(=O)O; Orn = NCCC[C@H](N)C(=O)O
The following compounds are listed with their measured pIC50 values.
recorded-endpoint: pIC50

| compound | number |
| --- | --- |
| CCCCCCN1CC(=O)N[C@@H](Cc2ccc(O)cc2)C(=O)N[C@@H](CCCC)C(=O)N[C@@H](CC(=O)O)C(=O)N[C@@H](CCCN)C(=O)N[C@@H](CC(C)C)C(=O)N[C@@H](CCCCC)C(=O)N2CCC[C@H]2C(=O)N[C@@H](C(C)C)C(=O)N[C@@H](CC(=O)O)C(=O)N[C@H](C(=O)N[C@@H](CO)C(N)=O)CSCC(=O)N[C@@H](Cc2ccc3ccccc3c2)C(=O)N[C@@H](Cc2ccc(O)cc2)C(=O)N[C@@H](CC(=O)O)C1=O [Ex 1319] ({CH2CO}-[2Nal]YD[NHexGly]Y[Nle]D[Orn]L[Ahp(2)]PVDCS-NH2; thioether N-14) | 7.86 |
| CCCCCCN1CC(=O)N[C@@H](Cc2ccc(O)cc2)C(=O)N[C@@H](C(C)C)C(=O)NCC(=O)N[C@@H](CCCNC(=N)N)C(=O)N[C@@H](CC(C)C)C(=O)N[C@@H](CCCCC)C(=O)N2CCC[C@H]2C(=O)N[C@@H](C(C)C)C(=O)N[C@@H](CC(=O)O)C(=O)N[C@H](C(=O)N[C@@H](CC(N)=O)C(N)=O)CSCC(=O)N[C@@H](Cc2ccc3ccccc3c2)C(=O)N[C@@H](Cc2ccc(O)cc2)C(=O)N[C@@H](CC(=O)O)C1=O [Ex 1310] ({CH2CO}-[2Nal]YD[NHexGly]YVGRL[Ahp(2)]PVDCN-NH2; thioether N-14) | 8.47 |
| CCCCCCN1CC(=O)N[C@@H](Cc2ccc(O)cc2)C(=O)N[C@@H](CC(C)C)C(=O)NCC(=O)N[C@@H](CCCNC(=N)N)C(=O)N[C@@H](CCCCN)C(=O)N[C@@H](CCCCC)C(=O)N2CCC[C@H]2C(=O)N[C@@H](C(C)C)C(=O)N[C@@H](CO)C(=O)N[C@H](C(=O)NCC(=O)O)CSCC(=O)N[C@@H](Cc2ccc3ccccc3c2)C(=O)N[C@@H](Cc2ccc(O)cc2)C(=O)N[C@@H](CC(=O)O)C1=O [Ex 1296] ({CH2CO}-[2Nal]YD[NHexGly]YLGRK[Ahp(2)]PVSCG-OH; thioether N-14) | 7.76 |
| CCCCCCN1CC(=O)N[C@@H](Cc2ccc(O)cc2)C(=O)N[C@@H](CCCC)C(=O)NCC(=O)N[C@@H](CCCNC(=N)N)C(=O)N[C@@H](CC(C)C)C(=O)N[C@@H](CCCCC)C(=O)N2CCC[C@H]2C(=O)N[C@@H](C(C)C)C(=O)N[C@@H](CCC(=O)O)C(=O)N[C@H](C(=O)NCC(N)=O)CSCC(=O)N[C@@H](Cc2ccc3ccccc3c2)C(=O)N[C@@H](Cc2ccc(O)cc2)C(=O)N[C@@H](CC(=O)O)C1=O [Ex 1287] ({CH2CO}-[2Nal]YD[NHexGly]Y[Nle]GRL[Ahp(2)]PVECG-NH2; thioether N-14) | 7.37 |

###

test-system: mouse VISTA (mVISTA) (Mus musculus, UniProt Q9D659)
Construct: expressed in transfected cells; host or cells: Human embryonic kidney 293T cells
Sequence (Q9D659 33-308): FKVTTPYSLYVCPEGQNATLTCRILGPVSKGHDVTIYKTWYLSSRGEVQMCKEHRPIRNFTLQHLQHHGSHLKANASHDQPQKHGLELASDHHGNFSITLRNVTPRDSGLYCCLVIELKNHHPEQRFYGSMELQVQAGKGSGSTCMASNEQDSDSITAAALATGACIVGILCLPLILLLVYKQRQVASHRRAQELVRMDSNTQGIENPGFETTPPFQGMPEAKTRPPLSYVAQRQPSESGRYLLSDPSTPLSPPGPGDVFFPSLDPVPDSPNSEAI
assay-comment: Cell-Based Binding High-Content Assay For mVISTA (HC CBA mVISTA)
assay-context: cell-based binding high-content assay, mVISTA; the 15th table; read-out: HC CBA mVISTA IC50
pIC50: −log10 of the molar value. Positions of bridges follow the written chain, without caps; N, C: chain ends. Non-standard residues stand in square brackets, D forms with d. Residues, ends and D or L forms follow the SMILES beside them. 2Nal = N[C@@H](Cc1ccc2ccccc2c1)C(=O)O; Ahp(2) = CCCCC[C@H](N)C(=O)O; NMeNle = CCCC[C@H](NC)C(=O)O; NHexGly = CCCCCCNCC(=O)O

| compound | pIC50 |
| --- | --- |
| CCCCCCN1CC(=O)N[C@@H](Cc2ccc(O)cc2)C(=O)N[C@@H](CC(C)C)C(=O)NCC(=O)N[C@@H](CCCNC(=N)N)C(=O)N[C@@H](Cc2ccc(O)cc2)C(=O)N[C@@H](CCCCC)C(=O)N2CCC[C@H]2C(=O)N[C@@H](C(C)C)C(=O)N[C@@H](CC(=O)O)C(=O)N[C@H](C(=O)NCC(=O)O)CSCC(=O)N[C@@H](Cc2ccc3ccccc3c2)C(=O)N[C@@H](Cc2c[nH]c3ccccc23)C(=O)N[C@@H](CC(=O)O)C1=O [compound 1263] ({CH2CO}-[2Nal]WD[NHexGly]YLGRY[Ahp(2)]PVDCG-OH; thioether N-14) | 7.70 |
| CCCCCCN1CC(=O)N[C@@H](Cc2ccc(O)cc2)C(=O)N[C@@H](CCCCC)C(=O)N[C@@H](CC(N)=O)C(=O)N[C@@H](CCCNC(=N)N)C(=O)N(C)[C@@H](CCCC)C(=O)N[C@@H](CCCCC)C(=O)N2CCC[C@H]2C(=O)N[C@@H](C(C)C)C(=O)N[C@@H](CO)C(=O)N[C@H](C(=O)NCC(=O)O)CSCC(=O)N[C@@H](Cc2ccc3ccccc3c2)C(=O)N[C@@H](Cc2c[nH]c3ccccc23)C(=O)N[C@@H](CC(=O)O)C1=O [compound 1252] ({CH2CO}-[2Nal]WD[NHexGly]Y[Ahp(2)]NR[NMeNle][Ahp(2)]PVSCG-OH; thioether N-14) | 8.19 |

###

The following compounds are listed with their measured pIC50 values.
test-system: mouse VISTA (mVISTA) (Mus musculus)
Construct: expressed in transfected cells; host or cells: Human embryonic kidney 293T cells
assay-comment: Cell-Based Binding High-Content Assay For mVISTA (HC CBA mVISTA)
assay-context: 293T cells expressing mouse VISTA; competition with biotinylated peptide (2 nM); read-out: HC CBA mVISTA IC50
Source text: Cell-Based Binding High-Content Assay For mVISTA Human embryonic kidney 293T cells (293T) expressing mouse VISTA (mVISTA) were used for the assessment of compounds competing with the binding of a biotinylated peptide. […] The plates were washed 3 times in dPBS, sealed, and read on a CellInsight NXT High Content Screening Platform IC903000 (Thermo Scientific). […]
pIC50: −log10 of the molar value. Positions of bridges follow the written chain, without caps; N, C: chain ends. Non-standard residues stand in square brackets, D forms with d. Residues, ends and D or L forms follow the SMILES beside them. N(3-phenylpropyl)Gly = O=C(O)CNCCCc1ccccc1; Ahp(2) = CCCCC[C@H](N)C(=O)O; NMeNle = CCCC[C@H](NC)C(=O)O; NHexGly = CCCCCCNCC(=O)O; Nle = CCCC[C@H](N)C(=O)O

| compound | pIC50 |
| --- | --- |
| CCCCC[C@@H]1NC(=O)[C@H](CCCC)N(C)C(=O)[C@H](CCCNC(=N)N)NC(=O)[C@H](CC(N)=O)NC(=O)[C@H](CC(C)C)NC(=O)[C@H](Cc2ccc(O)cc2)NC(=O)CN(CCCc2ccccc2)C(=O)[C@H](CC(=O)O)NC(=O)[C@H](Cc2ccc(O)cc2)NC(=O)[C@H](Cc2ccccc2)NC(=O)CSC[C@@H](C(=O)NCC(N)=O)NC(=O)[C@H](CO)NC(=O)[C@H](C(C)C)NC(=O)[C@@H]2CCCN2C1=O [Example 1086] ({CH2CO}-FYD[N(3-phenylpropyl)Gly]YLNR[NMeNle][Ahp(2)]PVSCG-NH2; thioether N-14) | 7.39 |
| CCCCCCN1CC(=O)N[C@@H](Cc2ccc(O)cc2)C(=O)N[C@@H](CCCC)C(=O)N[C@@H](CC(=O)O)C(=O)N[C@@H](CCCNC(=N)N)C(=O)N[C@@H](CC(C)C)C(=O)N[C@@H](CCCCC)C(=O)N2CCC[C@H]2C(=O)N[C@@H](C(C)C)C(=O)NCC(=O)N[C@H](C(=O)NCC(=O)O)CSCC(=O)N[C@@H](Cc2ccccc2)C(=O)N[C@@H](Cc2ccc(O)cc2)C(=O)N[C@@H](CC(=O)O)C1=O [Example 1024] ({CH2CO}-FYD[NHexGly]Y[Nle]DRL[Ahp(2)]PVGCG-OH; thioether N-14) | 7.87 |
